// reported viability at 28.5 h, 10 µM per item
- Method Summary: in vitro
- Measurement Parameters: human, hela cells, % viability
I only need the number, in %, no unit after it.

The following molecules have reported results that may help.
Cc1nn2cc(CNC(=O)CN3CCOc4ccccc4C3)nc2s1 :: 89
COCCNC(=O)c1cc(-c2ccc(Cl)cc2)cnc1NS(C)(=O)=O :: 94.4
NC(=O)C1CCN(c2ncnc3c2oc2ccccc23)CC1 :: 87.6
Cc1cccc(C(=O)NC(CC(C)C)c2nnc3n2CCNCC3)c1O (stereo not drawn) :: 99.6
COc1cc(C)nc(NCc2cnn(C)c2C)n1 :: 85.4
CCOc1ccccc1NC(=O)CN(C)S(=O)(=O)c1ccc2ccccc2c1 :: 101

The reported viability at 28.5 h, 10 µM of the molecule "COC(=O)CCn1c(=O)c2c(nc3oc(C(C)(C)C)cn32)n(C)c1=O" was 87.7

Given item CCSc1ccccc1-c1nc2c(=O)n(C)c(-c3ccc(CN4CCCC4)cc3)cc2o1 [CBK200426T] , the value recorded as its viability at 28.5 h, 10 µM is 77.9

The recorded viability at 28.5 h, 10 µM for entry "COC(=O)c1c(NC(=S)Nc2ccccc2)sc(Cc2ccccc2)c1C" equals 90.6
